Provenance of the data: patent US7625917B2

# testSystem: recombinant HIV-1 integrase (Human immunodeficiency virus type 1 group M subtype B, UniProt P03366)
# Construct: recombinant HIV-1 integrase; S. Hughes, ABL Basic Research NCI-FCRDC, Frederick Md
# method: HIV-1 integrase 3′ processing and strand transfer assay
measuredAttribute: IC50

For record O=C(CCCC[n+]1ccccc1)Sc1ccccc1C(=O)Nc1ccc(S(=O)(=O)c2ccc([N+](=O)[O-])cc2)cc1 [Compound 47] the listed IC50 is > 100 µM

---

# Test system: HIV-1RF
# method: XTT cytoprotection assay (antiviral activity)
# Assay type: cell-based
# testSettings: Table 10; read-out: EC50 %
Give measured EC50 for each item. Keep answers brief.
Field format: number, assumed µM, no unit text.

Measured EC50, `CC(=O)NS(=O)(=O)c1ccc(NC(=O)c2ccccc2SC(=O)CCC[n+]2ccccc2)cc1` : 10.1

Reported EC50 of `CC(=O)NS(=O)(=O)c1ccc(NC(=O)c2ccccc2SC(=O)CCCCC[n+]2ccccc2)cc1` : 10.5

Briefly, EC50 measured for `CC(=O)NS(=O)(=O)c1ccc(NC(=O)c2ccccc2SC(=O)CCCC[n+]2cccc(Cl)c2)cc1` : 54
